target: citrate synthase
Please provide measured Citrate Synthase Inactivation, µ for the entries that follow.

# annotated cases, reported Citrate Synthase Inactivation, µ shown
1) FkpA-DsbA5 (protein) AEAAKPATAADSKAAFKNDDQKSAYALGASLGRYMENSLKEQEKLGIKLDKDQLIAGVQDAFADKSKLSDQEIEQTLQAFEARVKSSAQAKMEKDAADNEAKGKEYREKFAKEKDGKQYTTLEKPVAGAPQVLEFFSFFCPHCYQFEEVLHISDNVKKKLPEGVKMTKYHVNFMGGDLGKDLTQAWAVAMALGVEDKVTVPLFEGVQKTQTIRSASDIRDVFINAGIKGEEYDAAWNSFVVKSLVAQQEKAAADVQLRGVPAMFVNGKYQLNPQGMDTSNMDVFVQQYADTVKYLSEKKHHHHHH
0.26 min - 1
2) FkpA-DsbA4 (protein) AEAAKPATAADSKAAFKNDDQKSAYALGASLGRYMENSLKEQEKLGIKLDKDQLIAGVQDAFADKSKLSDQEIEQTLQAFEARVKSSAQAKMEKDAADNEAKGKEYREKFAKEKEDGKQYTTLEKPVAGAPQVLEFFSFFCPHCYQFEEVLHISDNVKKKLPEGVKMTKYHVNFMGGDLGKDLTQAWAVAMALGVEDKVTVPLFEGVQKTQTIRSASDIRDVFINAGIKGEEYDAAWNSFVVKSLVAQQEKAAADVQLRGVPAMFVNGKYQLNPQGMDTSNMDVFVQQYADTVKYLSEKKHHHHHH
0.45 min - 1

Now look at this entry.
Citrate Synthase Inactivation, µ for DsbC (enzyme, Escherichia coli, UniProt P0AEG6 21-236, looked up, also called wild-type DsbC) DDAAIQQTLAKMGIKSSDIQPAPVAGMKTVLTNSGVLYITDDGKHIIQGPMYDVSGTAPVNVTNKMLLKQLNALEKEMIVYKAPQEKHVITVFTDITCGYCHKLHEQMADYNALGITVRYLAFPRQGLDSDAEKEMKAIWCAKDKNKAFDDVMAGKSVAPASCDVDIADHYALGVQLGVSGTPAVVLSNGTLVPGYQPPKEMKEFLDEHQKMTSGK ?
0.22 min - 1
